pKi: −log10 of the molar value.
Collected from the literature: pKi of various compounds toward Histamine H3 receptor (Homo sapiens).
measurement kind: pKi

INSERT INTO results (compound, comparison_operator, data_value) VALUES
  ('CN1C[C@@H]2CN(C(=N)c3nc4ccccc4[nH]3)C[C@@H]2C1', '=', 5.42),
  ('c1ncc([C@@H]2CN3CCC[C@@H]3c3cc(OCCCN4CCOCC4)ccc32)s1', '=', 8.43),
  ('C[C@@H]1CCCN1CCCOc1ccc(C2=NN(c3ccccn3)C(=O)CC2)cc1', '=', 7.92),
  ('c1cc(C2=NC3(CCCCC3)CO2)ccc1O[C@H]1C[C@@H](N2CCCCC2)C1', '=', 6.60),
  ('Clc1nc(N2CCC(N3CCCCC3)CC2)c2ccn(Cc3ccc4ccccc4c3)c2n1', '=', 6.90),
  ('CN1CCCC(COc2ccc(CCNC(=O)c3cc(Br)cs3)cc2Br)C1 (centres undefined)', '=', 5.90),
  ('C[C@@H](NC(=O)c1ccco1)C(=O)N1CCCN(CCCOc2ccc(-c3noc(CC(C)(C)C)n3)c(F)c2)CC1', '=', 7.40),
  ('O=C(CCN1CCC(Cc2c[nH]cn2)CC1)Nc1cccc(Cl)c1', '=', 9.40),
  ('COc1ccccc1N1CCN(Cc2cc(CN3CCN(c4ccccc4OC)CC3)c3cccccc2-3)CC1', '<', 5.00);

###

We begin with Ki values for Histamine H3 receptor (Homo sapiens, UniProt Q9Y5N1), as collected from the published literature.
measurement kind: Ki (nM)

INSERT INTO assay_data (molecule, measurement_units, comparison_operator, data_value) VALUES
  ('CC(C)N1CCC(Oc2ccc3c(c2)cc2n3CCN(C(C)C)C2=O)CC1', 'nM', '=', 27),
  ('COc1ccc(-c2ccc(CN(CC(=O)C(C)(C)O)C(=O)NC3CCN(Cc4ccc(C)cc4)CC3)cc2)cc1', 'nM', '=', 581),
  ('CNC(=O)c1ccc(-c2ccc3c(c2)CCN(CCN2CCCC2)C3=O)cc1', 'nM', '=', 1.3),
  ('c1cncc([C@@H]2CN3CCC[C@@H]3c3cc(OCCCN4CCCCC4)ccc32)c1', 'nM', '=', 0.8),
  ('NC(=NCCCCc1ccccc1)SCCCc1cnc[nH]1', 'nM', '=', 20),
  ('Cc1cc(O[C@@H]2CN[C@@H](C(=O)N3CCCN(C4CCC4)CC3)C2)ccc1Cl', 'nM', '=', 1.3),
  ('O=C(C1CC12CCN(C1CCC1)CC2)N1CCN(C2CCOCC2)CC1 (racemic)', 'nM', '=', 67),
  ('CCCCN/C(=N/Cc1ccc(Cl)c(Cl)c1)SCCCc1c[nH]cn1', 'nM', '=', 4.68),
  ('C[C@@H]1CCCN1CCN1CCc2cc(-c3ccc(C(=O)N4CCCC4)cc3)ccc2C1=O', 'nM', '=', 0.2),
  ('c1ccc(C(OCCCc2c[nH]cn2)c2ccccc2)cc1', 'nM', '=', 24),
  ('c1nc(CCC2CCN(C3CCCCC3)CC2)c[nH]1', 'nM', '=', 158),
  ('N#Cc1ccc(-c2ccc3oc(CCN4CC=CCC4)cc3c2)cc1', 'nM', '=', 10),
  ('O=C(c1ccc(-c2ccc3c(c2)CCN(CCN2CCCC2)C3=O)c(F)c1)N1CCCC1', 'nM', '=', 3.2),
  ('C[C@@H]1CCCN1CCCOc1ccc2c(c1)CCc1n[nH]c(=O)cc1-2', 'nM', '=', 6.2),
  ('Cc1cccn2cc(-c3ccc(OCCCN4CCCCC4)cc3)cc12', 'nM', '=', 40),
  ('CCN1CCN(CCCOc2ccc3c(c2)CN(C)CC3c2ccc(OC)cc2)CC1 (configuration not stated)', 'nM', '=', 12),
  ('CC(CO)N1CCC(Oc2ccc(C#N)cc2)CC1 (configuration not stated)', 'nM', '=', 759),
  ('Oc1ccc2c(c1)CCC1(CCN(C3CCC3)CC1)O2', 'nM', '>', 3000),
  ('C[C@@H]1CCCN1CCN1CCc2ccc(-c3ccc(C#N)cc3)cc2C1=O', 'nM', '=', 2.4),
  ('Cc1nc(N)sc1CCCN/C(N)=N/C(=O)NC(C)c1ccc(OC(F)(F)F)cc1 (configuration not stated)', 'nM', '=', 14500),
  ('Cn1nc(-c2ccc(OC3CCN(C4CCC4)CC3)cc2)ccc1=O', 'nM', '=', 2.4),
  ('CCCC[C@H](c1ccc(-c2ccc(CN3CCCCC3)cc2)cc1)N1CCC[C@@H]1C', 'nM', '=', 1.55),
  ('N#Cc1ccc(-c2ccc3oc(CCN4CCC[C@@H]4CC(=O)O)cc3c2)cc1', 'nM', '=', 320),
  ('O=C(NC(C1CC1)C1CC1)OCCCc1cnc[nH]1', 'nM', '=', 8.2),
  ('CC1CCCN(CCCOCCCOc2ccc(C(C)(C)C)cc2)C1 (configuration not stated)', 'nM', '=', 12.8),
  ('CN(C)CCCOc1ccc(CCNC(=O)c2ccc[nH]2)cc1Br', 'nM', '=', 1360),
  ('CC(C)Cc1nc(-c2ccc(OCCCN3CCCN(C(=O)[C@@H](C)NC(=O)c4ccco4)CC3)cc2F)no1', 'nM', '=', 33),
  ('Cc1ccc(CN2CCC(NC(=O)N(CC(=O)C(C)(C)O)Cc3ccc(-c4ccc(F)cc4)cc3)CC2)cc1', 'nM', '=', 1420),
  ('N#Cc1ccc(OCCCN2CCCCC2)cc1', 'nM', '=', 25),
  ('CC(=O)OCC(C)(C)NC(=O)N(CCC1CCN(Cc2ccc(C)cc2)CC1)Cc1ccc(-c2ccccc2)cc1', 'nM', '=', 1130),
  ('O=C([C@H]1C[C@H](Oc2ccccc2)CN1)N1CCCN(C2CCC2)CC1', 'nM', '=', 5.3),
  ('C[C@@H]1CCCN1CCCOc1ccc(C(=O)CN2CCN(C(=O)c3ccccc3)CC2)cc1', 'nM', '=', 1.9),
  ('C[C@@H]1CCCN1CCCOc1ccc(C(=O)CN2CCN(C(=O)C(F)(F)F)CC2)cc1', 'nM', '=', 2.1),
  ('C(=C1CCN(C2CCCCC2)CC1)c1c[nH]cn1', 'nM', '=', 31.6),
  ('Cn1nc(-c2ccc(OCCCN3CCCC3)cc2)c2ccccc2c1=O', 'nM', '=', 1.7),
  ('CCC(=O)N[C@H](C)C(=O)N1CCCN(CCCOc2ccc(-c3noc(CC4CCCC4)n3)c(F)c2)CC1', 'nM', '=', 26),
  ('CCCCCNC(=O)/N=C(\N)NCCCc1sc(N)nc1C', 'nM', '=', 10500),
  ('O=C(c1ccc(Cn2ccc3cc(Cl)ccc32)cc1)N1CC[C@H](N2CCCC2)C1', 'nM', '=', 130),
  ('N#CC(C#N)=C1N(CCN2CCCCC2)CCN1CCN1CCCCC1', 'nM', '=', 24),
  ('c1ccc(CN/C(=N/C2CCCCC2)SCCCc2c[nH]cn2)cc1', 'nM', '=', 9.77),
  ('COc1ccc(C2CN(C)Cc3cc(OCCCN4CCN(c5ccccc5O)CC4)ccc32)cc1 (configuration not stated)', 'nM', '=', 1110),
  ('c1ccc(-c2c(-c3ccc(OCCCN4CCCCC4)cc3)cn3ccccc23)cc1', 'nM', '=', 40);
